Sourced from patent US7332631B2

pIC50 overview
molecular target: FcγRIIa (Homo sapiens, UniProt P12318); construct: endogenous in cells; host or cells: washed human platelets; assay: FACS assay of activation of human platelets by heat aggregated IgG (HAGG), P-Selectin expression; format: cell-based; details: in vitro testing, summary table; read-out: IC50 Platelet Inhibition
Sequence (P12318 34-317): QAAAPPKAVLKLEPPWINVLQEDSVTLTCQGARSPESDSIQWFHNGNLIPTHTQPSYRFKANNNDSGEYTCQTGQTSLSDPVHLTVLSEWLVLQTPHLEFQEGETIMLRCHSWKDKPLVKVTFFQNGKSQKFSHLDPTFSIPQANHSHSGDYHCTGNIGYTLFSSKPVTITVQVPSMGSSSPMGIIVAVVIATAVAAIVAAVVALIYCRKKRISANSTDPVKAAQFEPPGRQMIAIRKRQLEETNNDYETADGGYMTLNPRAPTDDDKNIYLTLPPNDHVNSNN
pIC50 is defined as minus the log10 of a concentration measured in mol/L.

>>> df
                        smiles_notation  measured
0  N#Cc1cccc(C(=O)CSc2ccc(C(=O)O)cc2)c1      3.44
1   C/C(=C(/S)C(=O)NCC(=O)O)c1cccc(O)c1      3.55
2    O=C(O)c1ccc(C(=O)/C=C/c2ccccc2)cc1      4.40
3       O=C(O)c1ccc(SCC(=O)c2ccccc2)cc1      3.77

Let us examine a further case.
Challenge: Give the measured pIC50 for `O=C(O)c1ccc(C(=O)CSc2ccccc2C(=O)O)cc1`
Response given: 4.30

====

molecular target: FcγRIIa (Homo sapiens, UniProt P12318); construct: endogenous in cells; host or cells: washed human platelets; test: FACS assay of activation of human platelets by heat aggregated IgG (HAGG), P-Selectin expression; type: cell-based; settings: washed human platelets, HAGG as agonist; several values in a cell = repeat determinations; '(ICnn)' after a '<' bound = inhibition level at that concentration; read-out: Concentration at 50% inhibition of platelet activation by HAGG
IC50 overview
Give the value; after it, write the unit.

>>> df
                                   compound  quantity  measured
0  O=C(/C=C/c1ccccc1C(=O)O)c1ccc[nH]1 [Compound 238]      IC50    270 µM
1  N#CCCCSc1cccc(C(=O)O)c1 [Compound 239, 3-(3-Cyanopropylsulfanyl)benzoic acid]      IC50    330 µM
2  N#Cc1cccc(C(=O)CSc2ccc(C(=O)O)cc2)c1 [Compound 385]      IC50    360 µM

Let us examine a further case.
Challenge: State IC50 (FcγRIIa (Homo sapiens, UniProt P12318)) of O=C(O)c1cccc(C(=O)CSc2ccccc2C(=O)O)c1 [Compound 412] .
Response given: 60 µM

====

target: HSA-FcγRIIa (Homo sapiens, UniProt P02768+P12318); test: ELISA Inhibition Assay: inhibition of human IgG complex binding to plate-bound HSA-FcγRIIa; conditions: HSA-FcγRIIa 5 μg/ml on plate, human IgG complex 0.2 μg/ml
Sequence (P02768+P12318 fused): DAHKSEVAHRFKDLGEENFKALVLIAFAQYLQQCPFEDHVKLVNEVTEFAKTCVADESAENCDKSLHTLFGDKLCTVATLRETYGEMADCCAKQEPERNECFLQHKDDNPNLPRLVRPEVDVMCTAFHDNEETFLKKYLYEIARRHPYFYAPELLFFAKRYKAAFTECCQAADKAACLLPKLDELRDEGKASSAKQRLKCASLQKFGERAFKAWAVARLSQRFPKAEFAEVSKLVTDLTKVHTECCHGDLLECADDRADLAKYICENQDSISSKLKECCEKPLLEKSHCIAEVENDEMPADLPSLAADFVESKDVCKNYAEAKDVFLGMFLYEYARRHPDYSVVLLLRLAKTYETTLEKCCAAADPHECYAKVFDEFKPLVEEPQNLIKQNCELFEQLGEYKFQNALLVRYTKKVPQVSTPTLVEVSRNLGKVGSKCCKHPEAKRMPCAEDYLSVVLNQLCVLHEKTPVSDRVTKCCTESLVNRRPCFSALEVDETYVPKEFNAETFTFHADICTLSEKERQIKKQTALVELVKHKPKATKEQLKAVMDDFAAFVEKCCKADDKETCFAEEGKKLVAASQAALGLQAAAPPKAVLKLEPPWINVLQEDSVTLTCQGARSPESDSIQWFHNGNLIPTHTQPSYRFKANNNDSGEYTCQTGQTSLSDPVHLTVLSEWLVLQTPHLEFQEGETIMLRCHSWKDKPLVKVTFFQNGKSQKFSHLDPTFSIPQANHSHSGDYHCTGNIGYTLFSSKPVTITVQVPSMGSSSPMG
quantity: pIC50
pIC50 is defined as minus the log10 of a concentration measured in mol/L.

// solved cases for pIC50 follow
>>> df
                         smiles_notation  measured
0        O=C(O)c1ccc(SCC(=O)c2ccccc2)cc1      2.32
1     N#Cc1cccc(C(=O)CSc2ccccc2C(=O)O)c1      2.11
2  O=C(O)c1ccc(C(=O)CSc2ccccc2C(=O)O)cc1      2.16

Challenge: State pIC50 (HSA-FcγRIIa (Homo sapiens, UniProt P02768+P12318)) of `O=C(O)c1ccc(C(=O)/C=C/c2ccccc2)cc1` .
Response given: 2.21

Challenge: State pIC50 (HSA-FcγRIIa (Homo sapiens, UniProt P02768+P12318)) of `O=C(O)c1cccc(SCC(=O)c2cccc(C(=O)O)c2)c1` .
Response given: 2.21
